- System: Escherichia coli TOP10
- TEST SUMMARY: shrunken log2 fold change of peptide-encoding DNA abundance (4.5 h post-induction vs induction); higher = less antimicrobial activity (less host growth inhibition)
- TEST CONTEXT: time post-induction: 4.5 h; library: site-saturation at positions 5, 18, 19, 20
Please respond with reported shrunken log2 fold change for every item in the list.

Fill in: shrunken log2 fold change of RRIRYRPPRLPRPRPRPDATPRP is ___
0.104

Fill in: shrunken log2 fold change of RRIRLRPPRLPRPRPRPSAGPRP is ___
-0.0364

Fill in: shrunken log2 fold change of RRIRVRPPRLPRPRPRPQFAPRP is ___
0.133

Fill in: shrunken log2 fold change of RRIRSRPPRLPRPRPRPFSCPRP is ___
-0.0153

Fill in: shrunken log2 fold change of RRIRQRPPRLPRPRPRPQGEPRP is ___
-0.154

Fill in: shrunken log2 fold change of RRIRYRPPRLPRPRPRPHQIPRP is ___
-0.201

Fill in: shrunken log2 fold change of RRIRPRPPRLPRPRPRPWARPRP is ___
0.0379

Fill in: shrunken log2 fold change of RRIRIRPPRLPRPRPRPCCQPRP is ___
-0.0291

====

- System: Escherichia coli TOP10
- TEST SUMMARY: shrunken log2 fold change of peptide-encoding DNA abundance (4.5 h post-induction vs induction); higher = less antimicrobial activity (less host growth inhibition)
- TEST CONTEXT: time post-induction: 4.5 h; library: site-saturation at positions 5, 18, 19, 20
RECORDED ENDPOINT: shrunken log2 fold change
Write no unit; give the number alone.

Fill in: shrunken log2 fold change of RRIRLRPPRLPRPRPRPAMRPRP is ___
0.28

Fill in: shrunken log2 fold change of RRIRTRPPRLPRPRPRPINKPRP is ___
-0.322

Fill in: shrunken log2 fold change of RRIRTRPPRLPRPRPRPLERPRP is ___
-0.0732

Fill in: shrunken log2 fold change of RRIRWRPPRLPRPRPRPHACPRP is ___
0.171

Fill in: shrunken log2 fold change of RRIRIRPPRLPRPRPRPDAPPRP is ___
0.14

Fill in: shrunken log2 fold change of RRIRRRPPRLPRPRPRPEPIPRP is ___
0.378

Fill in: shrunken log2 fold change of RRIRQRPPRLPRPRPRPTECPRP is ___
0.0119

Fill in: shrunken log2 fold change of RRIRSRPPRLPRPRPRPIEMPRP is ___
-0.0731

Fill in: shrunken log2 fold change of RRIRMRPPRLPRPRPRPQMPPRP is ___
0.0529

Fill in: shrunken log2 fold change of RRIRFRPPRLPRPRPRPNGLPRP is ___
-0.0551

Fill in: shrunken log2 fold change of RRIRMRPPRLPRPRPRPKEMPRP is ___
0.31

Fill in: shrunken log2 fold change of RRIRCRPPRLPRPRPRPMLAPRP is ___
0.379

Fill in: shrunken log2 fold change of RRIRVRPPRLPRPRPRPTCAPRP is ___
0.579

Fill in: shrunken log2 fold change of RRIRKRPPRLPRPRPRPYQAPRP is ___
0.134

Fill in: shrunken log2 fold change of RRIRDRPPRLPRPRPRPVEGPRP is ___
0.211

Fill in: shrunken log2 fold change of RRIRQRPPRLPRPRPRPFWCPRP is ___
0.0825

Fill in: shrunken log2 fold change of RRIRLRPPRLPRPRPRPCVMPRP is ___
0.025

Fill in: shrunken log2 fold change of RRIRVRPPRLPRPRPRPTRVPRP is ___
0.0936

Fill in: shrunken log2 fold change of RRIRKRPPRLPRPRPRPMIFPRP is ___
-0.132

Fill in: shrunken log2 fold change of RRIRHRPPRLPRPRPRPIKNPRP is ___
-0.563

Fill in: shrunken log2 fold change of RRIRRRPPRLPRPRPRPDTKPRP is ___
-0.139

Fill in: shrunken log2 fold change of RRIRMRPPRLPRPRPRPSFSPRP is ___
-0.176

Fill in: shrunken log2 fold change of RRIRIRPPRLPRPRPRPETNPRP is ___
-0.264

Fill in: shrunken log2 fold change of RRIRYRPPRLPRPRPRPDCYPRP is ___
-3.15

Fill in: shrunken log2 fold change of RRIRLRPPRLPRPRPRPQWPPRP is ___
0.28

Fill in: shrunken log2 fold change of RRIRERPPRLPRPRPRPMYQPRP is ___
-0.0801

Fill in: shrunken log2 fold change of RRIRFRPPRLPRPRPRPHSVPRP is ___
0.036

Fill in: shrunken log2 fold change of RRIRHRPPRLPRPRPRPWSVPRP is ___
-0.125

Fill in: shrunken log2 fold change of RRIRERPPRLPRPRPRPHCPPRP is ___
-0.0673

Fill in: shrunken log2 fold change of RRIRCRPPRLPRPRPRPYEIPRP is ___
-0.00133

Fill in: shrunken log2 fold change of RRIRYRPPRLPRPRPRPGSHPRP is ___
-1.48

Fill in: shrunken log2 fold change of RRIRRRPPRLPRPRPRPFGWPRP is ___
0.271

====

- Tested on: Escherichia coli TOP10
- TEST SUMMARY: shrunken log2 fold change of peptide-encoding DNA abundance (4.5 h post-induction vs induction); higher = less antimicrobial activity (less host growth inhibition)
- TEST CONTEXT: time post-induction: 4.5 h; library: site-saturation at positions 5, 18, 19, 20
Please respond with reported shrunken log2 fold change for every item in the list.
Write no unit; give the number alone.

Fill in: shrunken log2 fold change of RRIRCRPPRLPRPRPRPHWFPRP is ___
-0.0681

Fill in: shrunken log2 fold change of RRIRFRPPRLPRPRPRPESWPRP is ___
0.53

Fill in: shrunken log2 fold change of RRIRQRPPRLPRPRPRPLWDPRP is ___
-0.0887

Fill in: shrunken log2 fold change of RRIRDRPPRLPRPRPRPTVCPRP is ___
0.662

Fill in: shrunken log2 fold change of RRIRMRPPRLPRPRPRPRNTPRP is ___
0.354

Fill in: shrunken log2 fold change of RRIRMRPPRLPRPRPRPTMSPRP is ___
-0.148

Fill in: shrunken log2 fold change of RRIRTRPPRLPRPRPRPSAAPRP is ___
0.186

Fill in: shrunken log2 fold change of RRIRYRPPRLPRPRPRPWWQPRP is ___
-0.00151

Fill in: shrunken log2 fold change of RRIRQRPPRLPRPRPRPTTYPRP is ___
-0.282

Fill in: shrunken log2 fold change of RRIRMRPPRLPRPRPRPKVFPRP is ___
0.0743

Fill in: shrunken log2 fold change of RRIRGRPPRLPRPRPRPHCVPRP is ___
0.517

Fill in: shrunken log2 fold change of RRIRRRPPRLPRPRPRPHHAPRP is ___
-0.0424

Fill in: shrunken log2 fold change of RRIRIRPPRLPRPRPRPPSGPRP is ___
0.537

Fill in: shrunken log2 fold change of RRIRNRPPRLPRPRPRPDTWPRP is ___
-0.213

Fill in: shrunken log2 fold change of RRIRDRPPRLPRPRPRPDDQPRP is ___
0.259

====

- Test system: Escherichia coli TOP10;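 further: peptides expressed intracellularly from a pBAD plasmid library in pooled LB shake-flask culture, induced with 0.3% L-arabinose, DNA abundance read by NGS, three biological replicates, DESeq2 with apeglm shrinkage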
- TEST SUMMARY: shrunken log2 fold change of peptide-encoding DNA abundance (4.5 h post-induction vs induction); higher = less antimicrobial activity (less host growth inhibition)
- TEST CONTEXT: time post-induction: 4.5 h; library: site-saturation at positions 5, 18, 19, 20
RECORDED ENDPOINT: shrunken log2 fold change
Write no unit; give the number alone.

Fill in: shrunken log2 fold change of RRIRERPPRLPRPRPRPKWVPRP is ___
-0.0367

Fill in: shrunken log2 fold change of RRIRNRPPRLPRPRPRPQVWPRP is ___
0.0895

Fill in: shrunken log2 fold change of RRIRLRPPRLPRPRPRPFPVPRP is ___
0.11

Fill in: shrunken log2 fold change of RRIRIRPPRLPRPRPRPAEIPRP is ___
-0.484

Fill in: shrunken log2 fold change of RRIRARPPRLPRPRPRPMATPRP is ___
0.601

Fill in: shrunken log2 fold change of RRIRHRPPRLPRPRPRPSCDPRP is ___
-0.336

Fill in: shrunken log2 fold change of RRIRHRPPRLPRPRPRPCDSPRP is ___
-0.00145

Fill in: shrunken log2 fold change of RRIRLRPPRLPRPRPRPSKGPRP is ___
-0.123

Fill in: shrunken log2 fold change of RRIRMRPPRLPRPRPRPHGPPRP is ___
0.752

Fill in: shrunken log2 fold change of RRIRVRPPRLPRPRPRPRMLPRP is ___
-0.103

Fill in: shrunken log2 fold change of RRIRMRPPRLPRPRPRPFTRPRP is ___
-0.0636

Fill in: shrunken log2 fold change of RRIRQRPPRLPRPRPRPCMWPRP is ___
-0.148

Fill in: shrunken log2 fold change of RRIRFRPPRLPRPRPRPNQPPRP is ___
-0.136

Fill in: shrunken log2 fold change of RRIRWRPPRLPRPRPRPESCPRP is ___
0.261

Fill in: shrunken log2 fold change of RRIRIRPPRLPRPRPRPCSYPRP is ___
-0.176

Fill in: shrunken log2 fold change of RRIRMRPPRLPRPRPRPMNHPRP is ___
-0.129

Fill in: shrunken log2 fold change of RRIRIRPPRLPRPRPRPGLEPRP is ___
-0.0336

Fill in: shrunken log2 fold change of RRIRIRPPRLPRPRPRPSKPPRP is ___
-0.189

Fill in: shrunken log2 fold change of RRIRNRPPRLPRPRPRPWTYPRP is ___
-0.351

Fill in: shrunken log2 fold change of RRIRMRPPRLPRPRPRPGRVPRP is ___
0.919

Fill in: shrunken log2 fold change of RRIRERPPRLPRPRPRPGAYPRP is ___
-0.243

Fill in: shrunken log2 fold change of RRIRYRPPRLPRPRPRPHEGPRP is ___
-0.199

Fill in: shrunken log2 fold change of RRIRTRPPRLPRPRPRPQEAPRP is ___
0.0871

Fill in: shrunken log2 fold change of RRIRGRPPRLPRPRPRPVQWPRP is ___
0.171

Fill in: shrunken log2 fold change of RRIRERPPRLPRPRPRPHLIPRP is ___
-0.207

Fill in: shrunken log2 fold change of RRIRKRPPRLPRPRPRPVNYPRP is ___
-0.0716

Fill in: shrunken log2 fold change of RRIRIRPPRLPRPRPRPAIRPRP is ___
-0.161

Fill in: shrunken log2 fold change of RRIRMRPPRLPRPRPRPGNAPRP is ___
0.573

Fill in: shrunken log2 fold change of RRIRHRPPRLPRPRPRPWITPRP is ___
-0.118

Fill in: shrunken log2 fold change of RRIRKRPPRLPRPRPRPHKAPRP is ___
-0.0179

Fill in: shrunken log2 fold change of RRIRIRPPRLPRPRPRPMKIPRP is ___
-0.167

Fill in: shrunken log2 fold change of RRIRNRPPRLPRPRPRPYRTPRP is ___
-0.268
